- assay_target: T1, interleukin-23 receptor (IL-23R) (human, UniProt Q5VWK5 24-629)
- T1 sequence (looked up): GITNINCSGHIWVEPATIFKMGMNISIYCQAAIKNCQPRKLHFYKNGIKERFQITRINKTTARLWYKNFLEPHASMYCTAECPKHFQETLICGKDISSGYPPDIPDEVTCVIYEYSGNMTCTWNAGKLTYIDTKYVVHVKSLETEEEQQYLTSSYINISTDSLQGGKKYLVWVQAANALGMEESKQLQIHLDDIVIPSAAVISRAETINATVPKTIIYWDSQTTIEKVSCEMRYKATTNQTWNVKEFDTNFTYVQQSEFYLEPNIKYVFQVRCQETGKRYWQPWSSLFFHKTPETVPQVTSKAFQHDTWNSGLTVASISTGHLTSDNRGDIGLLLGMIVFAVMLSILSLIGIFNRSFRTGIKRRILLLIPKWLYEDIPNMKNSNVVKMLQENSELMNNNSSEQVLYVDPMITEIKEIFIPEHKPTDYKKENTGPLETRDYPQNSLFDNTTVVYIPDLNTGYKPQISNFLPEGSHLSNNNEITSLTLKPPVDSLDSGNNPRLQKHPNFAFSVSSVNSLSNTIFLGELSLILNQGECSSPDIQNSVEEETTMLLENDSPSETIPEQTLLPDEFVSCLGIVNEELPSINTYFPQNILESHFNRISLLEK
- measurement_notes: cell-based or functional assay
Listing of recorded IC50, pStat3 HTRF (nM) by entry.
measure_name: IC50, pStat3 HTRF (nM)

binder	reading
XXQTWXCXXXENN (Ac-[(D)Arg]-cyclo[[Abu]-QTW-[β-homoGln]-C]-[Phe[4-(2-aminoethoxy)]-[2-Nal]-[4-amino-4-carboxy-tetrahydropyran]-ENN-NH2) [SEQ ID NO 97]	> 100 nM
XXQTWQCXXXENN (Alexa488-[PEG4]-[(D)Arg]-cyclo[[Abu]-QTWQC]-[Phe[4-(2-aminoethoxy)]-[2-Nal]-[4-amino-4-carboxy-tetrahydropyran]-ENN-NH2) [SEQ ID NO 71]	< 1 nM
XXQTWQCXXXENN (Ac-[(D)Arg]-cyclo[[Abu]-QTWQC]-[Phe[4-(2-aminoethoxy)]-[2-Nal]-[α-MeLeu]-ENN-NH2) [SEQ ID NO 107]	< 1 nM
XQTXQCXXXENN (Ac-cyclo[[Abu]-QT-[Trp(5-F)]-QC]-[Phe[4-(2-aminoethoxy)]-[2-Nal]-[α-MeLeu]-ENN-NH2) [SEQ ID NO 106]	< 1 nM
XXQTXQCXXXENN (Ac-[(D)Arg]-cyclo[[Abu]-QT-[Trp(5-F)]-QC]-[Phe[4-(2-aminoethoxy)]-[2-Nal]-[α-MeLeu]-ENN-NH2) [SEQ ID NO 105]	< 1 nM

Values were extracted from patent US20200207822A1.
